system: human MDR1 (P-gp); assay: Efflux ratio of permeability from basolateral to apical side to apical to basolateral side of MDCK cells expressing human MDR1; type: ADME, cell-based, Canis lupus familiaris; conditions: dog
parameter-measured: efflux ratio

Look over these answered cases.
# compound, parameter-measured, value
data = [
    ("CCC[C@H](NC1CCc2ccccc2C1)C(=O)Nc1cn(C(C)(C)CN2CCCC2)cn1 (stereo partly drawn)", "efflux ratio", 2.2),
    ("CCC[C@H](NCc1cc(F)cc(F)c1)C(=O)Nc1cn(C(C)(C)CN2CCCC2)cn1", "efflux ratio", 1.8),
    ("CCC[C@H](NC1CCc2cc(F)ccc2C1)C(=O)Nc1cn(C(C)(C)CN2CCCC2)cn1 (mixture of isomers)", "efflux ratio", 1.8),
    ("CCC[C@H](NC(CC)CC)C(=O)Nc1cn(C(C)(C)CN2CCCC2)cn1", "efflux ratio", 2.3),
]

1 = CCC[C@H](NC1COc2ccccc2C1)C(=O)Nc1cn(C(C)(C)CN2CCCC2)cn1 (stereo partly drawn)
2 = CCC[C@H](NCCc1cc(F)cc(F)c1)C(=O)Nc1cn(C(C)(C)CN2CCCC2)cn1
3 = CCC[C@H](NC1CCc2cc(Cl)ccc2C1)C(=O)Nc1cn(C(C)(C)CN2CCCC2)cn1 (mixture of isomers)
4 = CCC[C@H](NCCC(C)C)C(=O)Nc1cn(C(C)(C)CN2CCCC2)cn1
[Q] Put the entries in order of efflux ratio, starting with the largest number. Provide the ranking by listing each label in its place in the requested order.
[A] 4, 1, 2, 3
